Origin of the recorded values: PubChem BioAssay AID1963424

System: 327498-153-R-J2-PDC complex spheroid growth, % test/control
Experiment: Anticancer human tumor 327498-153-R-J2-PDC patient-derived uterine carcinosarcoma cell line growth inhibition [Asc]
Conditions: second compound 1 µM; first compound 0.03 µM; active compounds read low
propertyName: viability, T/C (%)
Number in %, nothing else.

# example entries with known answers
[[record]]
compound = "CCN1C(C(=O)NC23CCC(C(=O)O)(CC2)CC3)C(c2cccc(Cl)c2F)C2(C(=O)Nc3cc(Cl)ccc32)C12CCCCC2 (centres undefined) + Cc1c(S(C)(=O)=O)c(-c2cc(F)cc(N3CCN(c4ccc(NS(=O)(=O)c5ccc(NC(CCN6CCC(C(=O)OCCCP(=O)(O)O)CC6)CSc6ccccc6)c(S(=O)(=O)C(F)(F)F)c5)cc4)CC3)c2)c(-c2ccc(Cl)cc2)n1C(C)C"
targetortestsystem = "327498-153-R-J2-PDC complex spheroid growth, % test/control"
propertyname = "viability, T/C"
quantityunit = "%"
observedresult = 94.5

[[record]]
compound = "NC(=O)C(=Cn1cnc(-c2cc(C(F)(F)F)cc(C(F)(F)F)c2)n1)c1cncnc1 + Cc1c(S(C)(=O)=O)c(-c2cc(F)cc(N3CCN(c4ccc(NS(=O)(=O)c5ccc(NC(CCN6CCC(C(=O)OCCCP(=O)(O)O)CC6)CSc6ccccc6)c(S(=O)(=O)C(F)(F)F)c5)cc4)CC3)c2)c(-c2ccc(Cl)cc2)n1C(C)C"
targetortestsystem = "327498-153-R-J2-PDC complex spheroid growth, % test/control"
propertyname = "viability, T/C"
quantityunit = "%"
observedresult = 53.1

[[record]]
compound = "Cc1nc(N2CCC3(CC2)COC(C)C3N)c(CO)nc1Sc1ccnc(N)c1Cl (centres undefined) + Cc1c(S(C)(=O)=O)c(-c2cc(F)cc(N3CCN(c4ccc(NS(=O)(=O)c5ccc(NC(CCN6CCC(C(=O)OCCCP(=O)(O)O)CC6)CSc6ccccc6)c(S(=O)(=O)C(F)(F)F)c5)cc4)CC3)c2)c(-c2ccc(Cl)cc2)n1C(C)C"
targetortestsystem = "327498-153-R-J2-PDC complex spheroid growth, % test/control"
propertyname = "viability, T/C"
quantityunit = "%"
observedresult = 93.6


Attention now turns to another entry.
## Task // lookup viability, T/C for CCN1C(C(=O)NC23CCC(C(=O)O)(CC2)CC3)C(c2cccc(Cl)c2F)C2(C(=O)Nc3cc(Cl)ccc32)C12CCCCC2 (centres undefined) + CNC(C)C(=O)NC1CN(S(=O)(=O)c2cccc(S(=O)(=O)N3CCC4CCC(C(=O)NC(c5ccccc5)c5ccccc5)N4C(=O)C(NC(=O)C(C)NC)C3)c2)CCC2CCC(C(=O)NC(c3ccccc3)c3ccccc3)N2C1=O
## Result 82.1

###

Tested on: 327498-153-R-J2-PDC complex spheroid growth, % test/control
Test: Anticancer human tumor 327498-153-R-J2-PDC cell line growth inhibition [Asc];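 note: spheroids exposed to compound for 7 days after 3 days of growth; 100% = DMSO vehicle control wells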
Settings: second compound 3.16 µM; first compound 3.16 µM; active compounds read low
Source text: Multicellular complex tumor spheroid response to apoptosis pathway targeting inhibitors Alrizomadlin, Pelcitoclax, and Dasminapant in combination with a variety of drugs and investigational agents in selected tumor cell lines […] Compounds. […] If the clinical Cmax for an agent had not been determined, the highest concentration tested was 10 microM. […]
Overview of recorded viability, T/C for various compounds
Give your result in % as a bare value.

Record excerpt, results attached:
[[record]]
compound = "C#Cc1c(F)ccc2cc(O)cc(-c3ncc4c(N5CC6CCC(C5)N6)nc(OCC56CCCN5CC(F)C6)nc4c3F)c12 (centres undefined) + Cc1c(S(C)(=O)=O)c(-c2cc(F)cc(N3CCN(c4ccc(NS(=O)(=O)c5ccc(NC(CCN6CCC(C(=O)OCCCP(=O)(O)O)CC6)CSc6ccccc6)c(S(=O)(=O)C(F)(F)F)c5)cc4)CC3)c2)c(-c2ccc(Cl)cc2)n1C(C)C"
observedresult = 51.4

[[record]]
compound = "C=C(F)C(=O)N1CCN(c2nc(OCC3CCCN3C)nc3c2CCN(c2cccc4cccc(Cl)c24)C3)CC1CC#N (centres undefined) + Cc1c(S(C)(=O)=O)c(-c2cc(F)cc(N3CCN(c4ccc(NS(=O)(=O)c5ccc(NC(CCN6CCC(C(=O)OCCCP(=O)(O)O)CC6)CSc6ccccc6)c(S(=O)(=O)C(F)(F)F)c5)cc4)CC3)c2)c(-c2ccc(Cl)cc2)n1C(C)C"
observedresult = 2.02

[[record]]
compound = "C=CC(=O)N1CCN(c2nc(=O)n(-c3c(C)ccnc3C(C)C)c3nc(-c4c(O)cccc4F)c(F)cc23)C(C)C1 (centres undefined) + Cc1c(S(C)(=O)=O)c(-c2cc(F)cc(N3CCN(c4ccc(NS(=O)(=O)c5ccc(NC(CCN6CCC(C(=O)OCCCP(=O)(O)O)CC6)CSc6ccccc6)c(S(=O)(=O)C(F)(F)F)c5)cc4)CC3)c2)c(-c2ccc(Cl)cc2)n1C(C)C"
observedresult = 65.4


## Task Fill in: viability, T/C of O=C(c1cc(Cc2n[nH]c(=O)c3ccccc23)ccc1F)N1CCN(C(=O)C2CC2)CC1 + Cc1c(S(C)(=O)=O)c(-c2cc(F)cc(N3CCN(c4ccc(NS(=O)(=O)c5ccc(NC(CCN6CCC(C(=O)OCCCP(=O)(O)O)CC6)CSc6ccccc6)c(S(=O)(=O)C(F)(F)F)c5)cc4)CC3)c2)c(-c2ccc(Cl)cc2)n1C(C)C is ___
## Result 43.2
